tested on: B6C3F1 mice, B16 melanoma ip, median survival T/C; assay: NCI In Vivo Anticancer Drug Screen. Data for tumor model B16 Melanoma (intraperitoneal) in B6C3F1 mice; conditions: endpoint: median survival time; dose: 12.5 mg/kg/injection; schedule: Q01DX009 (ip); vehicle: suspension in saline
Inconclusive results and toxic doses are left out. Rule for the calls: active = survival T/C of 150% or more; inactive = T/C below 125% in these data.
// one of active, inactive, no free text

Each compound tested received a call. Report the one for Cn1nnc2c(C(N)=O)ncn2c1=O .
inactive

Status in this test for O=c1[nH]c(=O)n([C@H]2CCCO2)cc1F ?
inactive

Fill in: this test's call for NC(=O)c1ncn2c(=O)n(CCCl)nnc12 is ___
active

Status in this test for Cc1c2cc[n+](CCN3CCCCC3)cc2c(C)c2c1[nH]c1ccc(O)cc12 ?
active

Check the results log: what was the call for CCC(C(=O)O)C(=O)O.[NH-]CC1CCCC[N-]1.[Pt+2] ?
inactive

----------
tested on: B6C3F1 mice, B16 melanoma ip, median survival T/C; test: NCI In Vivo Anticancer Drug Screen. Data for tumor model B16 Melanoma (intraperitoneal) in B6C3F1 mice; details: endpoint: median survival time; dose: 200.0 mg/kg/injection; schedule: Q01DX009 (ip); vehicle: Klucel (hydroxypropylcellulose) (HPC); higher = longer survival
Inconclusive results and toxic doses are left out.
READOUT: T/C

Ic1ccc2c(c1)N(c1ccccc1)c1cc(N=c3ccc4nc5ccc(I)cc5n(-c5ccccc5)c-4c3)ccc1N2 tested on B6C3F1 mice, B16 melanoma ip, median survival T/C gave T/C: 94 % of control

Test item Nc1ccc(C(=O)O)c(O)c1 ; B6C3F1 mice, B16 melanoma ip, median survival T/C; reported T/C was 86 % of control

Value sought: T/C, system B6C3F1 mice, B16 melanoma ip, median survival T/C, item CCCC1CC(C(=O)NC(C(C)O)C2OC(SC)C(O)C(O)C2O)N(C)C1 (stereo not drawn) . Result: 100 % of control

Lab note: compound CC(C)(C)OC(=O)NC(CSCc1ccccc1)C(=O)ON1C(=O)CCC1=O (stereo not drawn) tested on B6C3F1 mice, B16 melanoma ip, median survival T/C; recorded T/C was 100 % of control

Log: B6C3F1 mice, B16 melanoma ip, median survival T/C, compound CC12C(=O)C=CCC1=CCC1C2CCC2(O)C(=O)OC3(C)C4CC5(C)C(COC16OC23C5C6=O)C(=O)O4 (stereo not drawn) , T/C = 98 % of control

Kindly note: B6C3F1 mice, B16 melanoma ip, median survival T/C, CC(NC(=O)C(Cc1cnc[nH]1)NC(=O)OCc1ccccc1)C(=O)O (stereo not drawn) , T/C value reported: 104 % of control

B6C3F1 mice, B16 melanoma ip, median survival T/C T/C of CC(C)C(NC(=O)OCC1c2ccccc2-c2ccccc21)C(=O)O (stereo not drawn) is 91 % of control

Param item: NC(CSCc1ccccc1)C(=O)Nc1ccc([N+](=O)[O-])cc1 (stereo not drawn) ; param system: B6C3F1 mice, B16 melanoma ip, median survival T/C; output T/C: 111 % of control

----------
tested on: B6C3F1 mice, B16 melanoma ip, median survival T/C; assay: NCI In Vivo Anticancer Drug Screen. Data for tumor model B16 Melanoma (intraperitoneal) in B6C3F1 mice; details: endpoint: median survival time; dose: 1.56 mg/kg/injection; schedule: Q01DX009 (ip); vehicle: saline; higher = longer survival
Toxic doses and inconclusive results are not listed.
Provide the recorded T/C for the entries that follow.

Reported T/C ( O=C(O)C1CSCN1 (stereo not drawn) ) = 96 % of control

The recorded T/C for CCCNC1=C(C)C(=O)C2=C(C1=O)[C@H](COC(N)=O)[C@]1(OC)[C@@H]3N[C@@H]3CN21 is 155 % of control

For reference, reported T/C for CC[n+]1ccc2c(C)c3[nH]c4ccc(O)cc4c3c(C)c2c1 stands at 123 % of control

Measured T/C, O=C(Nc1ccc(C2=NCCN2)cc1)c1ccc(C(=O)Nc2ccc(C3=NCCN3)cc2)c(Cl)c1 : 115 % of control

Entry under test: CCOC(=O)N1CCN(CCCCCCOc2ccc(C3CCCCC3)cc2)CC1 . Its T/C was 110 % of control

Input Nc1ncnc2c1ncn2C1OC(CO)C(O)C1O (stereo not drawn) . Output T/C: 94 % of control

Per the records, this compound ( Brc1c(NC2=NCCN2)ccc2nccnc12 ) has T/C equal to 100 % of control

Briefly, T/C measured for C[n+]1c(-c2cccc3ccccc23)c2cc(N)ccc2c2ccccc21 : 117 % of control

----------
system: B6C3F1 mice, B16 melanoma ip, median survival T/C; experiment: NCI In Vivo Anticancer Drug Screen. Data for tumor model B16 Melanoma (intraperitoneal) in B6C3F1 mice; conditions: endpoint: median survival time; dose: 3.12 mg/kg/injection; schedule: Q01DX009 (ip); vehicle: Klucel (hydroxypropylcellulose) (HPC); higher = longer survival
Toxic doses and inconclusive results are not listed.
For each of the molecules below, state its T/C.

Record N#C[Se-].c1ccc([Te+](c2ccccc2)c2ccccc2)cc1 , field T/C: 97 % of control

For record CNC(=O)OCc1c(COC(=O)NC)c(C)n(-c2ccc(OC)cc2)c1C the listed T/C is 112 % of control

For reference, reported T/C for O=NN(CCCl)C(=O)Oc1cc(Cl)c(Cl)cc1Cl stands at 99 % of control

Noted for Cc1ccc2c(c1)C1(C)OC(C=CC1=O)O2 (stereo not drawn) : its T/C reads 104 % of control

T/C for [F][Sn]([F])([c]1ccccc1)[c]1ccccc1 is 87 % of control

// field: T/C; key: NNC(=S)N/N=C/c1ccc([N+](=O)[O-])s1 ; value = 104 % of control

Input COc1cc(C2c3cc4c(cc3C(OC3CCCCO3)C3COC(=O)C23)OCO4)cc(OC)c1OC (stereo not drawn) . Output T/C: 98 % of control

CN(C(=S)S(=O)(=O)C12CC3CC(CC(C3)C1)C2)c1ccccc1 yielded T/C of 98 % of control

----------
System: B6C3F1 mice, B16 melanoma ip, median survival T/C
Assay: NCI In Vivo Anticancer Drug Screen. Data for tumor model B16 Melanoma (intraperitoneal) in B6C3F1 mice
Conditions: endpoint: median survival time; dose: 50.0 mg/kg/injection; schedule: Q01DX009 (ip); vehicle: saline with Tween-80; higher = longer survival
Protocol: The antitumor activity of compounds was measured in mice bearing transplantable tumors. Survival or tumor size were measured and the results are expressed as the measurement made in the treated group (T) divided by the measurement made in the vehicle treated control group (C). The tumor model used in this assay is B16 Melanoma (intraperitoneal) in B6C3F1 mice
Toxic doses and inconclusive results are not listed.
Record form. Attribute: T/C. Fill in for each entry.

Record summary for Nc1ccc2ccc(NS(=O)(=O)N3CCCCC3)cc2c1 : reported T/C = 98 % of control

Note to self: T/C recorded for OC(CN1CCCC2CCCCC21)c1cc2ccccc2c2ccccc12 (configuration not stated) was 100 % of control

Lookup result for CCCC(=O)c1ccco1 ; measured T/C: 100 % of control

Short answer for Cc1nn(CCO)c(C)c1N=[N+]([O-])c1c(C)nn(CCO)c1C : T/C was 96 % of control

Consider C/C=C/c1cc2c(c(=O)o1)C(=O)[C@@H](O)[C@H](C)O2 . Its measured T/C is 118 % of control

Short answer for Nc1ncnc2c1cnn2Cc1ccc(Cl)cc1 : T/C was 107 % of control

Sure, the documented T/C for N#CCc1c[nH]c2ccc([N+](=O)[O-])cc12 is 102 % of control

The reported value for Nc1ccc2cc(S(=O)(=O)O)cc(O)c2c1N=Nc1ccc(F)cc1 in terms of T/C is 98 % of control

Form field T/C, entry COc1ccc(/C=C/C(=O)c2cc(C(=O)O)c(OC)cc2OC)cc1OC : 96 % of control

The measured T/C associated with Clc1ccc(CN2COc3c(ccc4cccnc34)C2)cc1Cl reads 92 % of control

Measured T/C, CN=C(N)N/N=C(\C)c1ccc2c(c1)Cc1ccccc1-2 : 119 % of control

The compound listed as O=C(O)CNC(=O)C(CSCc1ccccc1)NC(=O)OCc1ccccc1 (configuration not stated) shows T/C equal to 95 % of control

----------
So I've got a bunch of molecules here, and I need their T/C values.
test system: B6C3F1 mice, B16 melanoma ip, median survival T/C; experiment: NCI In Vivo Anticancer Drug Screen. Data for tumor model B16 Melanoma (intraperitoneal) in B6C3F1 mice; conditions: endpoint: median survival time; dose: 400.0 mg/kg/injection; schedule: Q01DX009 (ip); vehicle: saline; higher = longer survival
Toxic doses and inconclusive results are not listed.

The molecule NC(CO)(CO)CO showed T/C equal to 102 % of control

molecule C1CCC(NC2CCCCC2)CC1 , T/C observed: 104 % of control

Lab note: measured T/C of NCCc1cc(O)c(O)c(O)c1 was 96 % of control

The recorded T/C for O=C(O)C1CC(O)CN1 (stereo not drawn) is 106 % of control

Looking up CSCCC(N)C(=O)O (stereo not drawn) , I found its T/C recorded as 99 % of control

In plain terms, NC(CCC(=O)Nc1ccc(O)cc1)C(=O)O (stereo not drawn) has a documented T/C of 124 % of control

// recorded T/C for CNc1c(NC)n(C)c(=O)n(C)c1=O : 96 % of control

T/C reading for OCC[N+]12CN3CN(CN(C3)C1)C2 : 108 % of control

So for CCCCCC[C@@H](O)C/C=C\CCCCCCCC(=O)OCCO , the logged T/C turned out to be 103 % of control

Value of T/C reported for the molecule CN1c2ccc3ccccc3c2Sc2ccc3ccccc3c21 is 118 % of control

Reported T/C of CC(C)C(N)C(=O)Nc1nncs1 (stereo not drawn) : 117 % of control

T/C for COCCOC is 96 % of control

response.value for Cn1cnc([N+](=O)[O-])c1SCC(=O)O (field: T/C) = 99 % of control

Please fill in: T/C reported for O=C1CCC2=C3C4CCCC5OC6CC(=O)CCC6=C(C6CCCC(OC2C1)C36)C54 (stereo not drawn) = 96 % of control

// T/C lookup, molecule = Cc1cc(O)c(Cl)cc1Cl , result: 90 % of control

Kindly note the recorded T/C for O=C1C=CC(=O)O1 (tested in a mixture with another compound) , which is 123 % of control

For this molecule ( Nc1nc(=S)c2ncn(C3CC(O)C(CO)O3)c2[nH]1 (stereo not drawn) ), measured T/C is 103 % of control

Value of measured T/C for the entry CC(=O)NCCSSCCCCS(=O)O : 96 % of control
